Target: 5-HT1A receptor (CHO/5-HT1A cells) (Homo sapiens, UniProt P08908)
Construct: expressed in transfected cells; host or cells: CHO/5-HT1A cells
Sequence (P08908 1-422): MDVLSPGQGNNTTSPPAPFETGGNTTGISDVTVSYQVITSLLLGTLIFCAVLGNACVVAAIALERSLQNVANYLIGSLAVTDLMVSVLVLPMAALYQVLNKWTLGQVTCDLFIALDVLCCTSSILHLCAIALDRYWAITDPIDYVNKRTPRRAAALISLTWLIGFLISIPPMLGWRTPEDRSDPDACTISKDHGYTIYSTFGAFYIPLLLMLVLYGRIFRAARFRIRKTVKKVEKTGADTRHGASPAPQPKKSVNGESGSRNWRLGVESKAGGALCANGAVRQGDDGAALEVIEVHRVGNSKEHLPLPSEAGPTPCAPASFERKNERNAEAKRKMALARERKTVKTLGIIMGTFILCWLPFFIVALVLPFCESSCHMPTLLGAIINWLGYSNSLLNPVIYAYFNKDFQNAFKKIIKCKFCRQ
Assay: 5-HT1A functional assay (cAMP)
Assay type: cell-based
Details: 10 μM compound, % inhibition of the cAMP accumulation induced by 10 μM FSK, read-out: 5-HT1A cAMP % Inhibition (agonist activity)
measured-property: inhibition at 10 µM (%)
Give a bare numeral; the unit % is implied.

Example entries begin here.
1. O=c1n(C/C=C/CN2CCN(c3ncccn3)CC2)c2ccccc2n1CC1CCCCC1 [Compound 125]	49
2. CCCn1c(=O)n(C/C=C\CN2CCN(c3cccc(C(F)(F)F)c3)CC2)c2ccccc21 [Compound 60]	71
3. Cn1c(=O)n(C/C=C\CN2CCN(c3cccc(C(F)(F)F)c3)CC2)c2ccccc21 [Compound 43]	73
4. Cn1c(=O)n(C/C=C\CN2CCN(c3ccccc3)CC2)c2ccccc21 [Compound 35]	66
5. O=c1n(C/C=C/CN2CCN(c3cccc(Cl)c3)CC2)c2ccccc2n1CC1CCCCC1 [Compound 124]	47
6. Cn1c(=O)n(C/C=C/CN2CCN(c3ccccn3)CC2)c2ccccc21 [Compound 89]	66
7. CCCn1c(=O)n(C/C=C\CN2CCN(c3ccccc3)CC2)c2ccccc21 [Compound 52]	54
8. O=c1n(C/C=C\CN2CCN(c3ccccc3)CC2)c2ccccc2n1CC1CCCCC1 [Compound 69]	52

Ask: Entry Cn1c(=O)n(C/C=C/CN2CC=C(c3ccccc3)CC2)c2ccccc21 [Compound 95] has what inhibition at 10 µM?
Reply: 22

Ask: Entry O=c1n(C/C=C/CN2CCN(c3ccccc3)CC2)c2ccccc2n1CC1CCCCC1 [Compound 120] has what inhibition at 10 µM?
Reply: 17

Ask: Entry O=c1n(C/C=C/CN2CCc3c([nH]c4ccccc34)C2)c2ccccc2n1CC1CCCCC1 [Compound 126] has what inhibition at 10 µM?
Reply: 44
